test: amyloid nucleation score (Sup35N fusion, yeast selection) (log enrichment); library NNK3; higher = more nucleation; inactive = no reads after selection;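 note: zero at mode of non-aggregating sequences after 7 days selection at 30°C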
property name: amyloid nucleation score

[
  {
    "substance": "YINRKLRDACRRYVFGW",
    "property name": "amyloid nucleation score",
    "result": 0.05
  },
  {
    "substance": "WCGRETSRQWA",
    "property name": "amyloid nucleation score",
    "result": 0.033
  },
  {
    "substance": "VCVNSLPYLICDIRVIIDRG",
    "property name": "amyloid nucleation score",
    "result": 1.11
  },
  {
    "substance": "CHEKANQELRHPYGCECVFV",
    "property name": "amyloid nucleation score",
    "result": "inactive"
  },
  {
    "substance": "NTSGKCVKIDVRLNTVTS",
    "property name": "amyloid nucleation score",
    "result": "inactive"
  }
]

Query block: # get_value(readout='amyloid nucleation score', item= `GTLCVGPLKASCETGKLKFF` )
Result block: inactive

Query block: # amyloid nucleation score lookup, item `VTSAPNKCFNLFYVNWDHNN`
Result block: 0.784

Query block: Using the record for `IVKVLFNSFGGWWYAHGLYV` , report its amyloid nucleation score.
Result block: inactive

Query block: Look up amyloid nucleation score: `MICLLSSSCKRRCLMG`
Result block: inactive

Query block: What measured amyloid nucleation score goes with `VTIITMEIWL` ?
Result block: 1.64

Query block: Requested field: amyloid nucleation score. Item: `ALKSPDSD`
Result block: inactive

Query block: Name the recorded amyloid nucleation score for `YFLGWRYQCDIVIFWYQLRV` .
Result block: inactive

// provenance: the supplement of paper PMC12042874
